- TARGET: POS-1 (Caenorhabditis elegans) binding to mex-3 RNA
- ASSAY_REMARKS: C. elegans POS-1 RNA interaction disruptors – biochemical, fluorescence polarization, cherry-picked samples, set 2, counter-screen for MEX-5 RNA-binding inhibitor project, dose response (AID 493130);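 further: POS-1 as maltose binding protein fusion made in E. coli with FITC RNA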
- CONDITIONS_USED: POS-1/mex-3 RNA fluorescence polarization, 1 h
Records with an inconclusive call do not appear. Calls of active or inactive are those of the source.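 How the source made its calls: active means signal-lowering compounds whose fitted half-maximal concentration is at most ten times their highest tested dose; inconclusive means flat fit between -30 and -70%, or poor fit; inactive means flat within 30%, signal rising, or potency beyond limit.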
Outcome codes: 1 = active, -1 = inactive

1) O=C1N=c2ccccc2=C1c1sc(=S)n(NC(=O)c2ccccc2)c1O :: 1
2) COCCCNC(=O)c1ccc2c3c(onc13)-c1ccccc1C2=O :: 1
3) Oc1ccc(/C=N/NC(=S)Nc2cccnc2)cc1O :: 1
4) CCC(=O)Oc1ccc2c(c1)O/C(=C\c1ccco1)C2=O :: 1
5) COCC1CCN(Cc2c(C(=O)N3CCc4ccccc4C3)nc3ccc(Cl)cn23)C1 (stereo unspecified) :: -1
6) COC(=O)C1=COC(C)C2CN3CCc4c([nH]c5ccccc45)C3CC12 (stereo unspecified) :: 1
7) CN(CCC#N)C(=O)COC(=O)c1c2c(nc3ccccc13)/C(=C/c1ccco1)CC2 :: -1
8) Nc1nnc(CC(=O)N/N=C/c2cc([N+](=O)[O-])cc(Br)c2O)s1 :: 1
9) CCn1c(SCc2nc3sc(C(=O)O)c(C)c3c(=O)[nH]2)nc2ccccc21 :: 1
10) COc1ccc(C2C=C(c3ccc(Br)cc3)Nc3nc(N4C(=O)CCC4=O)nn32)cc1 (stereo unspecified) :: 1
11) O=C1CCNc2ccc(-c3ccccc3)cc21 :: 1

====

- TARGET: POS-1 (Caenorhabditis elegans) binding to mex-3 RNA
- ASSAY_REMARKS: C. elegans POS-1 RNA interaction disruptors – biochemical, fluorescence polarization, cherry-picked samples, set 2, counter-screen for MEX-5 RNA-binding inhibitor project, dose response (AID 493130);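 further: POS-1 as maltose binding protein fusion made in E. coli with FITC RNA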;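 on activity change, negative = inhibition: 0% = DMSO neutral wells and -100% = excess unlabeled mex3 competitor RNA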
- CONDITIONS_USED: POS-1/mex-3 RNA fluorescence polarization, 1 h; at 10 µM (top of the series)
Inconclusive results are not listed. Activity calls are given as the source filed them.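 Rule for the calls: active = signal-lowering compounds whose fitted half-maximal concentration is at most ten times their highest tested dose; inconclusive = flat fit between -30 and -70%, or poor fit; inactive = flat within 30%, signal rising, or potency beyond limit.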
QUANTITY: activity change, negative = inhibition

1) CC(=Nc1ccc(C)cc1C)c1sc2ccccc2c1O :: inactive
2) Nc1nc(N)c2[nH]cnc2n1 :: inactive
3) O=Nc1[nH]c(=O)c(/C=C(\O)c2ccccc2)nc1NO :: inactive
4) COc1ccccc1-n1c(C)nc2cc(C(=O)NCc3ccc4c(c3)OCO4)ccc21 :: inactive
5) CC(=O)Nc1ccc(S(=O)(=O)/N=C2/NC(=O)/C(=C\c3ccco3)S2)cc1 :: inactive
6) C#CCN1C(=O)S/C(=C\c2ccc(N3CCOCC3)cc2C)C1=O :: inactive
7) COc1cc2c(cc1O)C[C@H]1NCCc3cc4c(c-2c31)OCO4 :: inactive
8) CCc1ccc(/C=C2/C(=O)N(CC)C(=S)N2C)s1 :: inactive
9) CN(C)c1ccc(C(c2nnnn2CCOC(=O)Nc2ccc(Cl)cc2)N2CCOCC2)cc1 (stereo unspecified) :: inactive
10) O=[As](O)(O)c1ccc(N=Nc2ccc(O)cc2)cc1 :: inactive
11) CN(C)c1ncnc2c1NC1=C(S2)C(=NCCCC(=O)O)CC(C)(C)C1 :: inactive

Each recorded value in this set is attributed to PubChem BioAssay AID493130.
